- Assay target: Caspase-3 (Homo sapiens) + Caspase-9 (Homo sapiens) (UniProt P42574+P55211)
- Sequence (P42574 whole entry, looked up): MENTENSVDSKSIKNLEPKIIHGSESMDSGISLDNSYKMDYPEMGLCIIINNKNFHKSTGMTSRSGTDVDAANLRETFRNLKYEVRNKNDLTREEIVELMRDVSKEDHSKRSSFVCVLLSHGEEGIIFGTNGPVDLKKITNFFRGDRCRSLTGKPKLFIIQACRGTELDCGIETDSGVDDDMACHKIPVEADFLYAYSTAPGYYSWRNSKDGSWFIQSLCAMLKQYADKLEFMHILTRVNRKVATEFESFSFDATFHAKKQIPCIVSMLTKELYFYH
- Sequence (P55211 whole entry, looked up): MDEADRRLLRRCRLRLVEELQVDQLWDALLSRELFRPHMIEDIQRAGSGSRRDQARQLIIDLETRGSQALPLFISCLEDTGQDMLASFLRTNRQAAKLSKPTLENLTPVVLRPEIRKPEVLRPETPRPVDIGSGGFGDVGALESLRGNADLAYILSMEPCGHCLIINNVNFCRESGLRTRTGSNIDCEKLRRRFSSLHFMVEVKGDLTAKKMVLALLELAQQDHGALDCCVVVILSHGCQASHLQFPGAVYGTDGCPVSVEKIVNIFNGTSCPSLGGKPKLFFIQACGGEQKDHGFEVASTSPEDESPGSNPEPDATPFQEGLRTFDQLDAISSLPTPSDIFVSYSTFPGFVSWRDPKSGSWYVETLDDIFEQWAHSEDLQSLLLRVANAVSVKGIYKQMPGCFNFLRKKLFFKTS
- Assay method text: inhibition of LZ-caspase-9 coupled caspase-3 activity – biochemical, fluorescence, uHTS hits, selectivity assay, dose response (AID 588574)
- Reported conditions: LZ-caspase-9/caspase-3 coupled fluorogenic substrate
The source made the active and inactive calls. The rule behind the calls is not given here.
I would appreciate it if you answered using one of these outcomes: 1 (yes) (active), 0 (no) (inactive)

Record excerpt, results attached:
Request: Could you kindly confirm the outcome this assay logged for Cc1[nH]n(-c2ccccc2)c(=O)c1/C=N/Nc1nncc(-c2ccccc2)n1 ?
Response: 1 (yes)

Request: # lookup: test call for COc1ccc(/C=N/Nc2cc(N(C)C)nc(N(C)C)n2)cc1
Response: 1 (yes)

Request: State the result this test recorded for CC1(C)C=C2C(=NN(c3ccccc3)C(N)=C2C#N)CO1 .
Response: 1 (yes)

Request: Called result for O=c1cc(N/N=C/c2ccccc2)[nH]c(=O)[nH]1
Response: 1 (yes)

Request: Test call for this compound, please: CCCCCCc1cc2cc(-c3nnc(-c4ccccc4)o3)c(=O)oc2cc1O
Response: 1 (yes)

---
Request: In this assay, the call recorded for CCN(CC)CCOC(=O)c1ccc(N/C=C(/C#N)c2nc(-c3cc4ccccc4oc3=O)cs2)cc1 was what?
Response: 0 (no)

Request: So what was the verdict on O=C(N/N=C/c1cc(Cl)cc([N+](=O)[O-])c1O)NC12CC3CC(CC(C3)C1)C2 in this test?
Response: 1 (yes)

Request: Short answer needed: outcome of this test for CC(C)c1ccc(/C=N/Nc2cc(N3CCOCC3)nc(N3CCOCC3)n2)cc1 ?
Response: 0 (no)

Request: Field: outcome | Entry: CC(=O)N(Cc1ccc(F)cc1)C1=C(NCCc2ccccc2)C(=O)c2ccccc2C1=O
Response: 1 (yes)

Request: Entry Oc1ccc(/C=N/Nc2cc(N3CCCC3)nc(N3CCCC3)n2)cc1 : call = ?
Response: 1 (yes)

Request: Hey, what did the test say about CSc1ccc(C=NNc2ccc(S(=O)(=O)Nc3ccccc3C(=O)O)cc2[N+](=O)[O-])cc1 ?
Response: 1 (yes)

* * *

- Assay target: Caspase-3 (Homo sapiens) + Caspase-9 (Homo sapiens) (UniProt P42574+P55211)
- Assay method text: inhibition of LZ-caspase-9 coupled caspase-3 activity – biochemical, fluorescence, uHTS hits, selectivity assay, dose response (AID 588574)
- Reported conditions: LZ-caspase-9/caspase-3 coupled fluorogenic substrate
Activity calls are given as the source filed them. No rule for the calls is given here.
Return exactly one item of active, inactive

Record excerpt, results attached:
Request: Fill in: this test's call for COc1ccc(NC2=C(NCCO)C(=O)c3ccccc3C2=O)cc1 is ___
Response: active

Request: Could you check what this test reported for Oc1cccc(/C=N/Nc2cc(N3CCCC3)nc(N3CCCC3)n2)c1 ?
Response: active

Request: Per the records of this test, what outcome belongs to CCN(CC)CCOC(=O)c1ccc(N/C=C(/C#N)c2nc(-c3ccc(OC)c(OC)c3)cs2)cc1 ?
Response: inactive

Request: Each compound tested received a call. Report the one for O=C1C(Cl)=C(NCCN2CCOCC2)C(=O)c2ccccc21 .
Response: active

Request: For this compound, state the assay outcome: Oc1ccc(/C=N\Nc2cc(N3CCOCC3)nc(N3CCOCC3)n2)c(O)c1
Response: active

Next:
Request: Can you look up the reported call for O=C1C(O)=C(O)C(=O)c2ccccc21 for me?
Response: active

* * *

- Assay target: Caspase-3 (Homo sapiens) + Caspase-9 (Homo sapiens) (UniProt P42574+P55211)
- Assay method text: inhibition of LZ-caspase-9 coupled caspase-3 activity – biochemical, fluorescence, uHTS hits, selectivity assay, dose response (AID 588574)
- Reported conditions: LZ-caspase-9/caspase-3 coupled fluorogenic substrate
Active and inactive are the calls of the source. No rule for the calls is given here.
Your reply should match one of these outcome classes. True (active), False (inactive)

For orientation, consider the following solved cases.
Request: I would be grateful if you could indicate the recorded call for Oc1ccccc1/C=N/Nc1cc(N2CCCC2)nc(N2CCCC2)n1 .
Response: True

Request: I would be grateful if you could indicate the recorded call for CN(C)c1cc(N/N=C/c2ccccc2C(F)(F)F)nc(N(C)C)n1 .
Response: True

Request: In this assay, the call recorded for CCN(CC)CCOC(=O)c1ccc(N/C=C(/C#N)c2nc(-c3ccc4c(c3)OCO4)cs2)cc1 was what?
Response: False

Request: // return assay outcome for CCCc1[nH]nc2c1C(c1ccc(OC)c(CSC3=NCCS3)c1)C(C#N)=C(N)O2 (stereo not given)
Response: True

Request: Assay outcome for CC(C)CCC(C)N=Cc1c(O)n(Cc2ccccc2)c(=O)c2ccccc12 (stereo not given) : what was it?
Response: True

Others:
Request: Assay result, entry CCC(=O)N(C1=C(NC)C(=O)c2ccccc2C1=O)C(C)C — outcome?
Response: True

Request: So what was the verdict on O=[N+]([O-])c1ccc(N/N=C/c2ccc(O)c(O)c2O)c(S(=O)(=O)N2CCOCC2)c1 in this test?
Response: True

Request: Entry Cc1ccc(NC2=C(NCCO)C(=O)c3ccccc3C2=O)cc1 : call = ?
Response: True

Request: Just curious, what result did CC1=NN(c2ccc(Cl)cc2)C(=O)C1C(c1ccccc1O)c1c(C)[nH]n(-c2ccc(Cl)cc2)c1=O (stereo not given) get here?
Response: True

Request: How was CCOC(=O)C1=C(c2ccccc2)NC(N)=NC1c1ccc(OCc2ccc(C(=O)OC)cc2)cc1 (stereo not given) classified in this test?
Response: True

* * *

- Assay target: Caspase-3 (Homo sapiens) + Caspase-9 (Homo sapiens) (UniProt P42574+P55211)
- Assay method text: inhibition of LZ-caspase-9 coupled caspase-3 activity – biochemical, fluorescence, uHTS hits, selectivity assay, dose response (AID 588574)
- Reported conditions: LZ-caspase-9/caspase-3 coupled fluorogenic substrate
Value type: IC50

Would you please look over these solved cases?
Request: Jot down IC50 (Caspase-3 (Homo sapiens) + Caspase-9 (Homo sapiens) (UniProt P42574+P55211)) of O=C1C(Cl)=C(NCc2cccnc2)C(=O)c2ccccc21 .
Response: 8.43 µM

Request: State IC50 on Caspase-3 (Homo sapiens) + Caspase-9 (Homo sapiens) (UniProt P42574+P55211). Entry: O/C=c1\ccc2cccc3nc(C(F)(F)F)nc1c23
Response: 11.8 µM

Request: Please look at CC1=NN(c2ccc(C(F)(F)F)cn2)C(=O)C1 and tell me its recorded IC50 on Caspase-3 (Homo sapiens) + Caspase-9 (Homo sapiens) (UniProt P42574+P55211).
Response: 8.21 µM

Request: Enter recorded IC50 with Caspase-3 (Homo sapiens) + Caspase-9 (Homo sapiens) (UniProt P42574+P55211) for CCOC(=O)C1=C(c2ccccc2)NC(N)=NC1c1ccc(OCc2ccc(Cl)cc2)c(OC)c1 (stereo unspecified) here.
Response: 15.8 µM

Request: Give IC50 only, for O=C1C(C2=C(O)c3ccccc3C2=O)=Nc2ccccc21 , using Caspase-3 (Homo sapiens) + Caspase-9 (Homo sapiens) (UniProt P42574+P55211) data.
Response: 5.3 µM

More entries:
Request: Please tell me the measured IC50 for Oc1ccc(/C=N/Nc2cc(N3CCCC3)nc(N3CCCC3)n2)cc1O ; system: Caspase-3 (Homo sapiens) + Caspase-9 (Homo sapiens) (UniProt P42574+P55211).
Response: 10.7 µM

Request: Report IC50 under test system Caspase-3 (Homo sapiens) + Caspase-9 (Homo sapiens) (UniProt P42574+P55211) for CN(C)c1cc(N/N=C\c2ccccc2)nc(N(C)C)n1 .
Response: 3.53 µM

Request: Supply IC50 measured with Caspase-3 (Homo sapiens) + Caspase-9 (Homo sapiens) (UniProt P42574+P55211) for CCN(CC)CCCNC1=C(Cl)C(=O)c2ccccc2C1=O .
Response: 16.1 µM

Request: Give IC50 for this entry on Caspase-3 (Homo sapiens) + Caspase-9 (Homo sapiens) (UniProt P42574+P55211): O=C1C(Cl)=C(NCCN2CCCCC2)C(=O)c2ccccc21
Response: 6.08 µM

Request: Enter recorded IC50 with Caspase-3 (Homo sapiens) + Caspase-9 (Homo sapiens) (UniProt P42574+P55211) for CCCCCCc1cc2cc(-c3nnc(-c4ccccc4OC)o3)c(=O)oc2cc1O here.
Response: 14.7 µM

Request: State the measured IC50 (Caspase-3 (Homo sapiens) + Caspase-9 (Homo sapiens) (UniProt P42574+P55211)) of COc1ccc(/C=N/Nc2cc(N3CCCC3)nc(N3CCCC3)n2)cc1
Response: 3.91 µM
